The measurements presented in this section are drawn from PubChem BioAssay AID504690.

Entries and their inhibition
# System: glucose-6-phosphate dehydrogenase-6-phosphogluconolactonase (Plasmodium falciparum 3D7)
# Method summary: inhibition of malaria parasite G6PD (PfGluPho) – biochemical, fluorescence intensity, uHTS, primary screen (AID 504690);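 note: 0% = DMSO wells with substrate and 100% = DMSO wells lacking glucose-6-phosphate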
# Setup conditions: PfGluPho enzyme, NADPH resazurin-diaphorase fluorescence; at 20 µM; hits give high values
The whole screen tested about 350,000 compounds, of which about 2,700 (0.77%) were called active. This excerpt belongs to a sample that is enriched for actives.
Express the result in % but write the number alone.

[[record]]
compound = "O=C(Nc1cccc(Cl)c1)c1cc(S(=O)(=O)N2CCCCC2)c[nH]1"
experimental_readout = "inhibition"
recorded_result = -8.02


**Q:** Given the compound `COc1ccc(CC(=O)NCC(=O)N/N=C/c2cc(Br)ccc2OC)cc1` , what is its reported inhibition?
**A:** 99.2

**Q:** Given the compound `CCc1cc(C(N)=O)c(NC(=O)c2ccc(OC)cc2)s1` , what is its reported inhibition?
**A:** 63.8

###

# Tested on: glucose-6-phosphate dehydrogenase-6-phosphogluconolactonase (Plasmodium falciparum 3D7)
# Method summary: inhibition of malaria parasite G6PD (PfGluPho) – biochemical, fluorescence intensity, uHTS, primary screen (AID 504690);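 note: 0% = DMSO wells with substrate and 100% = DMSO wells lacking glucose-6-phosphate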
# Setup conditions: PfGluPho enzyme, NADPH resazurin-diaphorase fluorescence; at 20 µM
The whole screen tested about 350,000 compounds, of which about 2,700 (0.77%) were called active.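 Rule for the calls: active = inhibition reaching at least a set limit at 20 µM in the primary screen (cut at about 59% in these data); inactive = the rest.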 This is one part of a sample in which actives are shown more often than they occur.
Entry note: the call must match one of T = active, F = inactive

Illustrative cases are given below, each with its answer.
[[record]]
compound = "CCOC(=O)C1=C(C)c2ccccc2OC1C(=O)OCC (stereo not drawn)"
assigned_label = "F"

[[record]]
compound = "O=[N+]([O-])c1c(NCCO)cc(Sc2nc3ccccc3s2)c2nonc12"
assigned_label = "T"


Turning now to a further record.
**Q:** Answer briefly: the call reported for C/C(=N/NC(=O)C1COc2ccccc2O1)c1ccco1 (stereo not drawn) in this assay.
**A:** F

###

# Tested on: glucose-6-phosphate dehydrogenase-6-phosphogluconolactonase (Plasmodium falciparum 3D7)
# Method summary: inhibition of malaria parasite G6PD (PfGluPho) – biochemical, fluorescence intensity, uHTS, primary screen (AID 504690);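 note: 0% = DMSO wells with substrate and 100% = DMSO wells lacking glucose-6-phosphate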
# Setup conditions: PfGluPho enzyme, NADPH resazurin-diaphorase fluorescence; at 20 µM; hits give high values
The campaign covered roughly 350,000 compounds. About 2,700 (0.77%) were called active. Shown is part of a subset that was picked to be rich in actives.
Experimental readout: inhibition (%)
Express the result in % but write the number alone.

Guide cases for inhibition, answers given:
[[record]]
compound = "FC(F)(F)c1ccc2c3n(nc2c1)CCN=C3c1ccc(Cl)cc1"
experimental_readout = "inhibition"
recorded_result = 21.6

[[record]]
compound = "O=C(CSc1nc(Nc2ccccc2)nc(N2CCOCC2)n1)Nc1cc(Cl)ccc1O"
experimental_readout = "inhibition"
recorded_result = 21.3

[[record]]
compound = "O=C(N/N=C\\c1cccc(Br)c1)c1ccccc1-n1cccc1"
experimental_readout = "inhibition"
recorded_result = 77.6

[[record]]
compound = "CCN(CCCCOC(=O)c1ccc(OC)c(OC)c1)C(C)Cc1ccc(OC)cc1 (configuration not stated)"
experimental_readout = "inhibition"
recorded_result = -1.86

[[record]]
compound = "COc1cc(S(=O)(=O)N2CCOCC2)ccc1NC(=O)COc1ccc(N(C)S(=O)(=O)c2ccc(C)cc2)cc1"
experimental_readout = "inhibition"
recorded_result = 3.13

[[record]]
compound = "O=C(NC1=CC(=O)c2ccccc2C1=O)c1ccccc1"
experimental_readout = "inhibition"
recorded_result = 80.4

[[record]]
compound = "COc1ccc(OC)c(NC(=O)c2cccc(S(=O)(=O)N3CCN(C(C)=O)CC3)c2)c1"
experimental_readout = "inhibition"
recorded_result = -11.9

[[record]]
compound = "CC1(C)C=C2[C@H]3CC[C@@H]4[C@@]5(C)CCC(=O)C(C)(C)[C@@H]5CC[C@@]4(C)[C@]3(C)CC[C@@]2(C(=O)O)CC1"
experimental_readout = "inhibition"
recorded_result = -28.4


**Q:** Given the compound `O=C(Nc1ccc2ccccc2c1[N+](=O)[O-])c1ccccc1` , what is its reported inhibition?
**A:** 33.8

**Q:** Given the compound `NC(=O)c1cc(-c2cccnc2)nc2ccc(Br)cc12` , what is its reported inhibition?
**A:** 14.2

**Q:** Given the compound `COc1ccc2cc1Oc1ccc(cc1)C[C@H]1c3cc(c(OC)cc3CCN1C)Oc1c(O)c(OC)cc3c1[C@H](C2)N(C)CC3` , what is its reported inhibition?
**A:** 10.2

**Q:** Given the compound O=C(NCCN1CCCC(O)C1)c1cc(COc2c(F)cccc2F)on1 (configuration not stated) , what is its reported inhibition?
**A:** -19.2

**Q:** Given the compound `O=C(CNC(=O)c1cccs1)N/N=C/c1cccc(Br)c1` , what is its reported inhibition?
**A:** -3.31

**Q:** Given the compound `COc1ccc(C(=O)Nc2cc(C)c(NC(=O)c3ccccc3OC)cn2)cc1` , what is its reported inhibition?
**A:** 79.1
